Taken from ChEMBL document CHEMBL3988442.

- Assayed System: Shiga toxin 2 (Escherichia coli O157:H7) (UniProt P09385+P09386)
- Assay Summary: E. coli 0.157:H7 Shiga Toxin SOP - stx2 screening assay
- Format: functional
- Parameters: scale not given: direction of the effect not stated beside the values
- Run Parameters: 30 µM
Reported Endpoint: Percent Effect (%)
Give the quantity in %, number only.

Example entries and their recorded answers appear below.
INSERT INTO assay_data (molecule, quantitative_result) VALUES
  ('CC(=O)N1CCN(Cc2nnc(C(C)(C)C)o2)CC1', -4.69),
  ('O=C(CCN1CCCC1c1cccs1)N1CCc2sccc2C1 (stereo not given)', 1.91),
  ('O=C(c1cnco1)N1CCCC(Cc2nccs2)C1 (stereo not given)', -2.47),
  ('COCc1nn(C(C)C)c2c1CCN(Cc1ccc(C)s1)C2', -26.4),
  ('O=C(c1ccn[nH]1)N1CCCC(n2cncn2)C1 (stereo not given)', -25),
  ('O=c1ccc2c(n1CCN1CCCC1)CCN(Cc1ccoc1)CC2', -1.66),
  ('CC(C)c1nn(C)c(N(C)C)c1CNCc1ccc2c(c1)OCO2', 30.6),
  ('CCOC(=O)N1CCN(C(=O)c2sc(-c3ccc(F)cc3)nc2C)CC1', 8.24),
  ('O=C(c1cnccn1)N1CCN(Cc2csc(-c3ccccc3)n2)CC1', 26.4),
  ('Cc1ccc(-c2cc(N)c(=O)n(CC(=O)NC3CCCCC3)n2)s1', 13.1);

Now for another entry.
State, in one line, measured Percent Effect of CCc1ccc(S(=O)(=O)Nc2cc(OC)c(OC)cc2C(=O)O)s1
27.3

---

Below, each entry is listed alongside its reported Percent Effect.
- Assayed System: Ubiquitin-activating enzyme e1, putative (Leishmania donovani (strain BPK282A1)) (UniProt E9BSI1)
- Sequence (E9BSI1 as listed by the source): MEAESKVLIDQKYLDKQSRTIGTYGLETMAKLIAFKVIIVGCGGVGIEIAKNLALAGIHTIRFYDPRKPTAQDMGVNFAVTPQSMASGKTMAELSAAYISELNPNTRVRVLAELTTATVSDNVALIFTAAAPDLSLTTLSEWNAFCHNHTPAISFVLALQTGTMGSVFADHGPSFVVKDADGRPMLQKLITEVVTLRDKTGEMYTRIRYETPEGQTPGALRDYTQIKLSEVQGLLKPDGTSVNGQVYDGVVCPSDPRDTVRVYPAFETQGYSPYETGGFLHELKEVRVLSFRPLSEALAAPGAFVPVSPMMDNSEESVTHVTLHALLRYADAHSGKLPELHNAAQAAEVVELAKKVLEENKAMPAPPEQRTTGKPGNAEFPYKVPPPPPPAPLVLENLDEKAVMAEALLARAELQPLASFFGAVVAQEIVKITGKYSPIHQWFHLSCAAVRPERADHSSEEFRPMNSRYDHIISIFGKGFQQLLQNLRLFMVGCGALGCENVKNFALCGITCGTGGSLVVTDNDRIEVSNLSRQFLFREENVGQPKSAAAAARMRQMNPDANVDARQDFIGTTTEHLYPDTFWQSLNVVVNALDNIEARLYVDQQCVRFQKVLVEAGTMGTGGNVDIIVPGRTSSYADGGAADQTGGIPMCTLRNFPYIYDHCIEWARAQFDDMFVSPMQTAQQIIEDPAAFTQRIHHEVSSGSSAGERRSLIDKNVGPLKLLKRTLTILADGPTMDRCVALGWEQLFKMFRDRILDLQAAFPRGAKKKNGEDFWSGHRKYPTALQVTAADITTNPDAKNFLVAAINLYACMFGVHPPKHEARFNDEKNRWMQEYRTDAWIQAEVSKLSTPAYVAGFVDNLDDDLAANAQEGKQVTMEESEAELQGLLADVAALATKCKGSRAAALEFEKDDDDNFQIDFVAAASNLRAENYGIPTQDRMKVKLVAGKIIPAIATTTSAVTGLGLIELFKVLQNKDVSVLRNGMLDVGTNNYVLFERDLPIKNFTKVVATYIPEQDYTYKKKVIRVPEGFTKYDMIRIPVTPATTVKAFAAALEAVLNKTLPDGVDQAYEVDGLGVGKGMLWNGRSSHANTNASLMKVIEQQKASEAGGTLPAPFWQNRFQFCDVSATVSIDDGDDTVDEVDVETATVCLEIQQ
- Assay Summary: Leishmania donovani Ubiquitin Activating Enzyme (LdE1)
- Format: functional
- Set-up: scale not given: direction of the effect not stated beside the values
- Run Parameters: 30 µM
Entries with a potency or affinity are not part of this list.
Give the quantity in %, number only.

Example entries and their recorded answers appear below.
INSERT INTO assay_data (molecule, reported_endpoint, quantitative_result) VALUES
  ('NC[C@H]1[C@H]2CN(Cc3ccccc3)C[C@@H]12', 'Percent Effect', 19.5),
  ('Cc1n[nH]c2c1C(c1ccsc1)SCC(=O)N2 (configuration not stated)', 'Percent Effect', 15.6),
  ('Cn1cc(N2C(=O)CC[C@@H]3[C@H]2CCN3Cc2ccncc2)cn1', 'Percent Effect', 2.67),
  ('CCN1CCC2(COCc3cnc(NCC4CC4)nc32)C1 (configuration not stated)', 'Percent Effect', 0),
  ('O=C(NCc1ccccn1)[C@]12COC[C@H]1CN(C1CCC1)C2', 'Percent Effect', 18.7),
  ('CN(C)c1nccc(N2CCO[C@H]3CN(Cc4ccsc4)C[C@H]32)n1', 'Percent Effect', 8.22);

Now for another entry.
State, in one line, measured Percent Effect of NCC1(c2cccc(C(F)(F)F)c2)CCOCC1
5.41

---

- Assayed System: Aspartate--tRNA(Asp/Asn) ligase (Mycobacterium tuberculosis (strain ATCC 25618 / H37Rv)); note: in the data most compounds retested in dose-response had high values
- Assay Summary: Assay for Asp RNA synthetase-1 from Mycobacterium tuberculosis
- Format: functional
- Design: scale not given: direction of the effect not stated beside the values
- Run Parameters: 30 µM
Reported Endpoint: Percent Effect (%)
Give the quantity in %, number only.

Example entries and their recorded answers appear below.
INSERT INTO measurements (compound, quantitative_result) VALUES
  ('O=C(Cc1ccc(O)c(Cl)c1)N1CCN(CC2CC2)[C@@H]2CS(=O)(=O)C[C@@H]21', 4.65),
  ('Cc1nn(C)c(C)c1C1CCCN1C(=O)c1ccc(NC2CC2)nc1 (configuration not stated)', 2.27),
  ('COc1c(CNCCNC(=O)Cc2ccc(F)cc2)c(C)nn1C', 1.84);

State, in one line, measured Percent Effect of c1cnn(CCN2CCOC(Cn3cncn3)C2)c1 (configuration not stated)
0.685

State, in one line, measured Percent Effect of CCCNC(=O)c1cc2c([nH]c1=O)CC(c1cccs1)CC2=O (configuration not stated)
-5.46

State, in one line, measured Percent Effect of COCC1c2c(cnn2CC2CC2)CCN1Cc1ccc(OC)cc1 (configuration not stated)
0.786

State, in one line, measured Percent Effect of CS(=O)(=O)N1CC[C@H]2C[C@@H](C(=O)N3CCOCC3)O[C@@H]2C1
2.65

State, in one line, measured Percent Effect of CCCNC(=O)CN1CCC(C(=O)Nc2cnn(CC)c2)CC1
0.927

State, in one line, measured Percent Effect of Cc1nc2cc(=O)[nH]n2c(C)c1CC(=O)Nc1ccc2ccccc2n1
1.28

State, in one line, measured Percent Effect of Cc1nnc(NC(=O)CN(C)CC2CCCN2c2cccnn2)s1 (configuration not stated)
0.577

State, in one line, measured Percent Effect of CCn1cnnc1CNC(=O)NCC(c1cccs1)N1CCCC1 (configuration not stated)
-1.91

---

Below, each entry is listed alongside its reported Percent Effect.
- Assayed System: Aspartate--tRNA(Asp/Asn) ligase (Mycobacterium tuberculosis (strain ATCC 25618 / H37Rv)); note: in the data most compounds retested in dose-response had high values
- Assay Summary: Assay for Asp RNA synthetase-1 from Mycobacterium tuberculosis
- Type: functional
- Set-up: scale not given: direction of the effect not stated beside the values
- Run Parameters: 30 µM
Give the quantity in %, number only.

State, in one line, measured Percent Effect of Cc1ccc(CCC(=O)N2CCCC(n3cncn3)C2)c(C)c1 (centres undefined)
-4.98

State, in one line, measured Percent Effect of Cc1cc2nc(SCC(=O)N3CCCC3)n(-c3ccccc3)c(=O)c2[nH]1
15.3

State, in one line, measured Percent Effect of COc1ccccc1C(=O)NC(C)CC(=O)O (centres undefined)
-5.28

State, in one line, measured Percent Effect of COc1ccc(CN2CCCC3(CCN(c4ccsc4)C3=O)C2)cc1 (centres undefined)
1.46

---

- Assayed System: Aspartate--tRNA(Asp/Asn) ligase (Mycobacterium tuberculosis (strain ATCC 25618 / H37Rv)) (UniProt P9WFW3); note: in the data most compounds retested in dose-response had high values
- Sequence (P9WFW3 whole entry): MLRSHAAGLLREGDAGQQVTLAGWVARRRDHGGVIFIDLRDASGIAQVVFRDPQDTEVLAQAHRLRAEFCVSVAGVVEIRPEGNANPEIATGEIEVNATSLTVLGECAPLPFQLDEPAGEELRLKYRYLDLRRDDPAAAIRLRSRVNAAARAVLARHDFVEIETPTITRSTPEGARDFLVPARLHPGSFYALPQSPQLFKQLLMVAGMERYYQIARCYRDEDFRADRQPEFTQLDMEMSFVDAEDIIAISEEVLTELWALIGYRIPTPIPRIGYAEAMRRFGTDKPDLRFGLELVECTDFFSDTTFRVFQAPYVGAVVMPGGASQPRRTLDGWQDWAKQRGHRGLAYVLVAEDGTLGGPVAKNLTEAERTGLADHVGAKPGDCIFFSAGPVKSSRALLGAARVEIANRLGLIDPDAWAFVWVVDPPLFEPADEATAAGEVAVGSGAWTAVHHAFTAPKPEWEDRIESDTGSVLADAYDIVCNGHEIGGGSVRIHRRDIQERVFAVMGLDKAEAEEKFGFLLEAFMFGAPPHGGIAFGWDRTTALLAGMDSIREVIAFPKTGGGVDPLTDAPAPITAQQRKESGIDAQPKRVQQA
- Assay Summary: Assay for Asp RNA synthetase-1 from Mycobacterium tuberculosis
- Type: functional
- Set-up: scale not given: direction of the effect not stated beside the values
- Run Parameters: 30 µM
Below, each entry is listed alongside its reported Percent Effect.
Give the quantity in %, number only.

Example entries and their recorded answers appear below.
INSERT INTO assay_data (compound, reported_endpoint, quantitative_result) VALUES
  ('CCC1=N[C@@]2(CC[C@@H]3CN(C(=O)NC(C)C)C[C@@H]32)C(=O)N1C', 'Percent Effect', -7.39),
  ('O=C(NCCO)c1ccn(-c2ccc3ccccn23)n1', 'Percent Effect', 2.94),
  ('COc1ccc(OCc2sc(C3(O)CCCNCC3)nc2C)cc1 (stereo not drawn)', 'Percent Effect', 5.08),
  ('Cc1noc([C@@]23CCO[C@@H]2CCN(C(=O)C2CCOCC2)C3)n1', 'Percent Effect', 0.117),
  ('COc1ccc(NC(=O)N2CCN(c3ncccn3)CC2)cn1', 'Percent Effect', -4.63),
  ('CC(C)Cc1noc(CN2CCN(C(=O)c3ccco3)CC2)n1', 'Percent Effect', -0.114),
  ('CN1CCN(C(=O)Cc2cccc(F)c2)Cc2cccnc21', 'Percent Effect', -2.05),
  ('Cc1cc(C[C@@H]2CCC[C@H]2NCc2ccccc2C(F)(F)F)on1', 'Percent Effect', 3.02);

State, in one line, measured Percent Effect of Cc1noc(C(C)C)c1C(=O)N1CCCN(Cc2cscn2)CC1
-4.35

State, in one line, measured Percent Effect of CC(CNC(=O)N1CCN(c2cnccn2)CC1)Cc1cccs1 (stereo not drawn)
0.324

State, in one line, measured Percent Effect of CSC(C)(C)CNC(=O)NC1CCN(C)CC1
-4.75

State, in one line, measured Percent Effect of CN(C)S(=O)(=O)N1CC[C@]2(C[C@H](Oc3cccnc3)CO2)C1
9.53

State, in one line, measured Percent Effect of CN(C)S(=O)(=O)c1ccc(CN2CCCC2CO)o1 (stereo not drawn)
-0.169

---

- Assayed System: Shiga toxin 2 (Escherichia coli O157:H7) (UniProt P09385+P09386)
- Assay Summary: E. coli 0.157:H7 Shiga Toxin SOP - stx2 screening assay
- Type: functional
- Set-up: scale not given: direction of the effect not stated beside the values
- Run Parameters: 30 µM
Below, each entry is listed alongside its reported Percent Effect.
Give the quantity in %, number only.

INSERT INTO results (compound, reported_endpoint, quantitative_result) VALUES
  ('Cc1ncc(-c2ccnc(N3CCN(C)CC3)n2)c(-c2cccnc2)n1', 'Percent Effect', -20.4),
  ('Cc1nc2c(c(N3CC=CC3)n1)CCN(Cc1ccoc1)CC2', 'Percent Effect', -69.4),
  ('CCN1CCN(CC(O)c2ccc(F)cc2)CC1 (stereo not given)', 'Percent Effect', 19.4);

State, in one line, measured Percent Effect of CC(C)c1csc(C2CCCN(C(=O)c3ccc(=O)n(C)n3)C2)n1 (stereo not given)
-6.52

State, in one line, measured Percent Effect of CC(C)NC(=O)N1CCC2(CC(=O)N(c3cccc(C#N)c3)C2)C1 (stereo not given)
8.35

State, in one line, measured Percent Effect of c1cc(-c2noc(CN3CCn4c(nnc4C4CC4)C3)n2)co1
0.987

State, in one line, measured Percent Effect of Cc1nccn1Cc1nnc(C2CCCN(Cc3cccnc3)C2)n1C (stereo not given)
4.73

State, in one line, measured Percent Effect of NC(=O)c1cccc(CC2CCN(C(=O)CO)C2)c1 (stereo not given)
-19.3

State, in one line, measured Percent Effect of CC(=O)N1CCCC(Cc2cncc(Br)c2)CC1 (stereo not given)
-11

State, in one line, measured Percent Effect of Cc1csc(NC(=O)CN(C)CC2CCCN2c2cccnn2)n1 (stereo not given)
-23.1
